Molecular target: Phosphatidylinositol 4,5-bisphosphate 3-kinase catalytic subunit delta isoform (Homo sapiens, UniProt O00329)
Sequence (O00329 whole entry, canonical isoform): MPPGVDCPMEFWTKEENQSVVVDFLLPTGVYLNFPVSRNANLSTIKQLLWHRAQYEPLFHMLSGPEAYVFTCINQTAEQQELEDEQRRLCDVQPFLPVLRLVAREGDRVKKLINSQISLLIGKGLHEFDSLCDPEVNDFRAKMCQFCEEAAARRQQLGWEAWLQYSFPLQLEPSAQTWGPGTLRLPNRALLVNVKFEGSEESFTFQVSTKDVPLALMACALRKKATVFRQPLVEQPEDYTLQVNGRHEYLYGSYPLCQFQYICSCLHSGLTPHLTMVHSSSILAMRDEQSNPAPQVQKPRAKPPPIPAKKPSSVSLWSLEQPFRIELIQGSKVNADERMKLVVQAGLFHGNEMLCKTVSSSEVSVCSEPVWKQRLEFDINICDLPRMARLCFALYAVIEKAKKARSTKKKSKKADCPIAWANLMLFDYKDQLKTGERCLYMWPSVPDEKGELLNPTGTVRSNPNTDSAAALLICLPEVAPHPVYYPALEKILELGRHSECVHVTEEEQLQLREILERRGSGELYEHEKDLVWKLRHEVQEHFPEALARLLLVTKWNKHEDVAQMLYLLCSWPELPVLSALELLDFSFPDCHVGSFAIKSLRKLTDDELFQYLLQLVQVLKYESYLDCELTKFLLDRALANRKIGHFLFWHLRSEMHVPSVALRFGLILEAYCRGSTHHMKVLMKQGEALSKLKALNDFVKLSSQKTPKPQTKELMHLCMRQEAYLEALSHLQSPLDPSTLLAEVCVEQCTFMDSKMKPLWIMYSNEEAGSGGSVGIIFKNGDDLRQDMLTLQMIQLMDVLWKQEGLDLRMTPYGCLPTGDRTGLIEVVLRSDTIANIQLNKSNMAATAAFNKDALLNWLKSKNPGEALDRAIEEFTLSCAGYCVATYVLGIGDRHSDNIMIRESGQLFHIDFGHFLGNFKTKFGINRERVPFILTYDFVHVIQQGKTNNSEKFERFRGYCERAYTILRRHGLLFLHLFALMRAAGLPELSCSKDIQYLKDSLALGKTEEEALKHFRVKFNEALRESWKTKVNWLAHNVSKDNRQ
value-type: IC50 (nM)
Write the value in nM as a bare number.

q: # input compound: O=c1cc(N2CCOCC2)oc2c(-c3ccccc3)cccc12 ; wanted: its IC50
a: 1600

###

Target: DNA-dependent protein kinase catalytic subunit (Homo sapiens, UniProt P78527)
Sequence (P78527 whole entry): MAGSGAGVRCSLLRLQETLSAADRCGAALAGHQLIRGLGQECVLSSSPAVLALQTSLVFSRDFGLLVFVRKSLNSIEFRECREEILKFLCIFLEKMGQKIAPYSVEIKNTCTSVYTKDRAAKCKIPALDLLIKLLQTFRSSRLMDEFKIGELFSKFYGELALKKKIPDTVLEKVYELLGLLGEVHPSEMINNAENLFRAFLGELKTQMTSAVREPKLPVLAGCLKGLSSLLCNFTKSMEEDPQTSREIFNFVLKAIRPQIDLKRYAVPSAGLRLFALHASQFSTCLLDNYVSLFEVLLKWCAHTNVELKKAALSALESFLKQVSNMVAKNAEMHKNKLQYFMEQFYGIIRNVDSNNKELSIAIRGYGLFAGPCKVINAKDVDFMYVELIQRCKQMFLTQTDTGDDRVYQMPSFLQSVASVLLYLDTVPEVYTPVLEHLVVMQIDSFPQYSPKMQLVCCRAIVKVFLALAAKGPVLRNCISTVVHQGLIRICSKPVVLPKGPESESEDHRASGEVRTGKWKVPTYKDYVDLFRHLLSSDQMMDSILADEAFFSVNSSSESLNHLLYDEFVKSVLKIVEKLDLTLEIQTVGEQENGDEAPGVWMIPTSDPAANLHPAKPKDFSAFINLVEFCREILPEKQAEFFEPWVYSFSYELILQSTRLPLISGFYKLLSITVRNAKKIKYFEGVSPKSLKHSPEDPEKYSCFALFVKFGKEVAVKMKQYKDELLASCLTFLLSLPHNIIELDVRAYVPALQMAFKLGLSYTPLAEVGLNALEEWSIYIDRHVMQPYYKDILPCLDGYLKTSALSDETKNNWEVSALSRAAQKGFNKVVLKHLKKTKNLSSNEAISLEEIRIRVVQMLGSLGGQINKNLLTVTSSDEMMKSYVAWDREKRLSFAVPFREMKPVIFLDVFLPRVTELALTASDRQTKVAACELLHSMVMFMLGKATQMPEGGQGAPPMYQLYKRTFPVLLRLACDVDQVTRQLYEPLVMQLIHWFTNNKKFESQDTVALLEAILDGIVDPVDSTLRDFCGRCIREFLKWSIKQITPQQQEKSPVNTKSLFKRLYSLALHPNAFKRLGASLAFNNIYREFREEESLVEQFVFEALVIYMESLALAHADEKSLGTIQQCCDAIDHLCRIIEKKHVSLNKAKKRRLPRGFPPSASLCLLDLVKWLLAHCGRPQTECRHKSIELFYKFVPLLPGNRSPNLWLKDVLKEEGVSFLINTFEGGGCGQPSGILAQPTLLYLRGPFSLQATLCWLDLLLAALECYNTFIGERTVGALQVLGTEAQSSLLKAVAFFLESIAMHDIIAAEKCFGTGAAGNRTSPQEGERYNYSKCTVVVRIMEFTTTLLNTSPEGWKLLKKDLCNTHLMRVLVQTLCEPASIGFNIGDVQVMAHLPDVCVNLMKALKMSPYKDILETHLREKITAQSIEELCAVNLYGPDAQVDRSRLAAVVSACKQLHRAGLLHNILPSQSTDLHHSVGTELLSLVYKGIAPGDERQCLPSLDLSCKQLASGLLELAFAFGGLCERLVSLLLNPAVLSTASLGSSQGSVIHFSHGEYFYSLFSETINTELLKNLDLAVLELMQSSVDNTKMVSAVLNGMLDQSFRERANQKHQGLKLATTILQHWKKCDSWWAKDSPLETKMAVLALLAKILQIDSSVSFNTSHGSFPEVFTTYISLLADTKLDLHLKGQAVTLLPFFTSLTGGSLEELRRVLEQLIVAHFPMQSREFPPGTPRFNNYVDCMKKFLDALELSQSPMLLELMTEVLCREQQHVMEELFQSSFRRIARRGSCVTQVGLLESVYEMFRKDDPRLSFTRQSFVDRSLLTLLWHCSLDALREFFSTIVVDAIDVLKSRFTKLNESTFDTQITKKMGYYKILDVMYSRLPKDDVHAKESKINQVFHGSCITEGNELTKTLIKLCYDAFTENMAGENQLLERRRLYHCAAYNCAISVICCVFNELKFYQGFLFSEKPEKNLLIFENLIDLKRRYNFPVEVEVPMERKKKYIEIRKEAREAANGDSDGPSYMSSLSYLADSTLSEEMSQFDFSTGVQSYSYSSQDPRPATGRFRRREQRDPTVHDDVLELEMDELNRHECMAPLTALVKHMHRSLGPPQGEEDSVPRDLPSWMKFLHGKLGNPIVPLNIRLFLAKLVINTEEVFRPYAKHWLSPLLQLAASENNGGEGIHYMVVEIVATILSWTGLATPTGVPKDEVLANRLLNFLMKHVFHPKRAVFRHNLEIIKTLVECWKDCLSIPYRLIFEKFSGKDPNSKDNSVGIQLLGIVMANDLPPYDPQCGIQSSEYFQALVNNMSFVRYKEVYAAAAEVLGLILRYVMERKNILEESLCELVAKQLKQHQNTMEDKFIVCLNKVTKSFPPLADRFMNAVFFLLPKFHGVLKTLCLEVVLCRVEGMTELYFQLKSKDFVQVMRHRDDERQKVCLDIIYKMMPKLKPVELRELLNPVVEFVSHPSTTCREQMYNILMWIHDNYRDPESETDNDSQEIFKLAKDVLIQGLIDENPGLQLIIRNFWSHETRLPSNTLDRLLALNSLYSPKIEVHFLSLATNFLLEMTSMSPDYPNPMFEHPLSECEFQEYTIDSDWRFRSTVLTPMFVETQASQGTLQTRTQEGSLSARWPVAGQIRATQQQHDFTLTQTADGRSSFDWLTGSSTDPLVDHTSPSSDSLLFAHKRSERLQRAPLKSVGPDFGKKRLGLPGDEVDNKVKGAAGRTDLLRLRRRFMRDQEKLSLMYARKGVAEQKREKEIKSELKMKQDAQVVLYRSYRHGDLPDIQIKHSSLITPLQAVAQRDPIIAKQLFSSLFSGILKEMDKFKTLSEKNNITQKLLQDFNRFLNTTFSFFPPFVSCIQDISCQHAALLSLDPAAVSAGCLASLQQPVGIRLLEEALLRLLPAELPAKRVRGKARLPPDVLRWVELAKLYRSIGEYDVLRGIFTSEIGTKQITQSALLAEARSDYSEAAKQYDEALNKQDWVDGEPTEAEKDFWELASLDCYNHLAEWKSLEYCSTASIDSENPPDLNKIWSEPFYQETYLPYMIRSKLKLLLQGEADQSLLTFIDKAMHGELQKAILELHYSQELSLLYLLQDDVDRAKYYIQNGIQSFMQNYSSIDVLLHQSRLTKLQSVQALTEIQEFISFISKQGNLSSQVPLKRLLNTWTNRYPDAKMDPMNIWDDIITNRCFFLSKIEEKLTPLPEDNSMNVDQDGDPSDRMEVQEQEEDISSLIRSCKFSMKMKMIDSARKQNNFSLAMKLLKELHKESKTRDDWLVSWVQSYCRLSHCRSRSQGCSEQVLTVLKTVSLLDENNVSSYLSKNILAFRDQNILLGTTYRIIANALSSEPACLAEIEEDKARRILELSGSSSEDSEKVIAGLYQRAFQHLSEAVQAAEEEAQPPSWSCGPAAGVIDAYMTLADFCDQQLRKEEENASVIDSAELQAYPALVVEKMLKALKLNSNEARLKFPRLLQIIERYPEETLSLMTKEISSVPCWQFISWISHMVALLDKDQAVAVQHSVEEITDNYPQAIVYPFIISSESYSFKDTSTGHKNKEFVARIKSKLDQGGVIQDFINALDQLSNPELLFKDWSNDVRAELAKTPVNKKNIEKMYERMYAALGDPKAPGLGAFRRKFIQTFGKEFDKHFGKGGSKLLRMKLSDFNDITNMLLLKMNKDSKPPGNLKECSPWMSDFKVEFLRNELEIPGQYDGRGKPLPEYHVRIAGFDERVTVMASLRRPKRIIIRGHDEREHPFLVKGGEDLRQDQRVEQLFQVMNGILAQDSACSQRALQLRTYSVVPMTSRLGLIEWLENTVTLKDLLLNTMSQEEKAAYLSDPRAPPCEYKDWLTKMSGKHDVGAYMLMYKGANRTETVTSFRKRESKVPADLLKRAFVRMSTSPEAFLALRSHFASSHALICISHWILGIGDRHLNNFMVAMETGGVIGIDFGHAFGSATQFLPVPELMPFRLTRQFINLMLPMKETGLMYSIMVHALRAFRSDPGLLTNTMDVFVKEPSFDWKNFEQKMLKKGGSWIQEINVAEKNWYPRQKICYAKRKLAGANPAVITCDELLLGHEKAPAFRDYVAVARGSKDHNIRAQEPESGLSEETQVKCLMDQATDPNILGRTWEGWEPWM
Assay: Inhibition of DNA-PK (unknown origin)
Kindly state pIC50 for each of the entries shown.
Units for pIC50: none; it is -log10 of a concentration expressed in mol/L.

q: Give recorded pIC50 with DNA-dependent protein kinase catalytic subunit (Homo sapiens, UniProt P78527) for the following compound: O=c1cc(N2CCOCC2)nc2c(-c3cccc4c3sc3ccccc34)cccn12
a: 7.89

q: Also need O=c1cc(N2CCOCC2)oc2c(-c3cccc4c3oc3ccccc34)cccc12 , thanks.
a: 7.39

q: Also need COc1ccc2oc(=O)cc(N3CCOCC3)c2c1 , thanks.
a: 5.92
